Data origin: the supplement of paper PMC10126150

Test system: ATP;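 further: ATP exposure 15 min at 22 °C before imaging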
Assay: switch fluorescence ratio, 500 uM ATP over buffer (Cy3 cluster intensity, sum of 5 cycles each) (fold (ratio)); higher = stronger signal-on switching upon ATP binding; sequences stand for … in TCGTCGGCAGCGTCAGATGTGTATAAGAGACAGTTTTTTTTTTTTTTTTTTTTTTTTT…TC
Details: aptamer strand: ATP DNA aptamer (quencher-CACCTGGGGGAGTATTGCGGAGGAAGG + anchor), 100 nM annealed; ATP concentration: 500 uM
switch fluorescence ratio overview
Reply with just the number.

(Q) Which switch fluorescence ratio reading was recorded for the sequence AGGATACATT ?
(A) 1.02

(Q) Now this one: ATTATTACGT
(A) 0.99

(Q) Now this one: AGTTTGAAAT
(A) 1.01

(Q) Now this one: TTATCTGCCT
(A) 1.06

(Q) Now this one: AAAGGTTTTT
(A) 0.988

(Q) Now this one: CTTGATTTGT
(A) 1.01

(Q) Now this one: TAAAATTGAG
(A) 1

(Q) Now this one: TAATTCGGAT
(A) 2.07

(Q) Now this one: ATTAGTCAGG
(A) 1.03
